All values here come from patent US20210269525A1.

tested_on: T1, human CD3e (T-cell surface glycoprotein CD3 epsilon chain) (human, UniProt P07766 23-207)
T1 construct: Target of the anti-hCD3e antibodies on human PBMC, Jurkat cells and cells expressing human CD3e; on T cells it is part of the CD3/TCR complex; also called hCD3e; CD3e on human PBMC
protocol_description: flow cytometry, human PBMC, antibody 0.01 ug/mL, anti-human IgG Fc-Alexa Fluor647 (1:500), anti-hTcRβ-PerCP (1:30)
readout: upper left quadrant, percent of cells AF647+ / hTcRβ-PerCP- (%)
Reply with just the number (in %).

Before answering, review these 2 worked examples.
Need upper left quadrant, percent of cells AF647+ / hTcRβ-PerCP- of 10A4-H4K1-IgG1-LALA (antibody, V domains shown, Humanized; human IgG1 with LALA mutations; also called H4K1 (humanized 10A4)) VH: QVQLQQSGAEVKKPGASVRISCKASGYTFTSYYIHWVRQRPGQGLEFIGWIYPGNVNAKYNEKFKGRATLTTDKSASTAYMELSSLRSEDTAVYFCAIKGGNYDWGQGTLVTVSS VL: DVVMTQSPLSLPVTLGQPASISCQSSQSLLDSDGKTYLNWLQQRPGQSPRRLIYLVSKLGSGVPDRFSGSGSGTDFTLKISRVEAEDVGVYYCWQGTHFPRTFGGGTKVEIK , thanks. 2.56

Let us now turn to 10A4-H4K2-IgG1-LALA (antibody, V domains shown, Humanized; human IgG1 with LALA mutations; also called H4K2 (humanized 10A4)) VH: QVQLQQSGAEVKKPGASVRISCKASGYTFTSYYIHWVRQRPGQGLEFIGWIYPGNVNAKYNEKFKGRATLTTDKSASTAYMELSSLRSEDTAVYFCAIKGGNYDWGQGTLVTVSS VL: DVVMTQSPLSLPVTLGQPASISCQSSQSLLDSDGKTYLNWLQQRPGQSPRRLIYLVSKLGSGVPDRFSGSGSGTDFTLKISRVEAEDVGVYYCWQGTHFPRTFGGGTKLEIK 2.25

# input for lookup
Please look up its upper left quadrant, percent of cells AF647+ / hTcRβ-PerCP-: 10A4-H1K2-IgG1-LALA (antibody, V domains shown, Humanized; human IgG1 with LALA mutations; also called H1K2 (humanized 10A4)) VH: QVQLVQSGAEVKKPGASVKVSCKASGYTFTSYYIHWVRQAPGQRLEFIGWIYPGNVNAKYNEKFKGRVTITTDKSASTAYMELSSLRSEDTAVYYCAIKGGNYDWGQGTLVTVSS VL: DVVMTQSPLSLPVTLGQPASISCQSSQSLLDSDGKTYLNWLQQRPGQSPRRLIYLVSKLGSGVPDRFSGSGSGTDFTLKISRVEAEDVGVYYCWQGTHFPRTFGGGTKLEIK 2.53
